- Test summary: Cytotoxicity against human Raji cells assessed as cell viability at 100 mol ratio after 48 hrs relative to TPA
- Assay type: cell-based
- Condition notes: read-out: Activity
What viability at 48 h, 100 mol ratio relative to TPA was measured for each of the following?
Give just the numeric value; % need not be written.

Ask: Identify the reported viability at 48 h, 100 mol ratio relative to TPA for the following entry. COC(=O)[C@]12CCC(C)(C)C[C@H]1C1=CC[C@@H]3[C@@]4(C)CC[C@H](O)C(C)(C)[C@@H]4CC[C@@]3(C)[C@]1(C)CC2 [METHYL OLEANOLATE]
Result: 80

Ask: Identify the reported viability at 48 h, 100 mol ratio relative to TPA for the following entry. COC(=O)[C@]12CCC(C)(C)C[C@H]1C1=CC[C@@H]3[C@@]4(C)C[C@@H](O)[C@H](O)C(C)(C)[C@@H]4CC[C@@]3(C)[C@]1(C)CC2 [MASLINIC ACID METHYL ESTER]
Result: 100

Ask: Identify the reported viability at 48 h, 100 mol ratio relative to TPA for the following entry. CC1(C)CC[C@]2(C(=O)O)CC[C@]3(C)C(=CC[C@@H]4[C@@]5(C)C[C@@H](O)[C@H](O)C(C)(C)[C@@H]5CC[C@]43C)[C@@H]2C1 [MASLINIC ACID]
Result: 70

Ask: Identify the reported viability at 48 h, 100 mol ratio relative to TPA for the following entry. CC(=O)OC[C@]12CCC(C)(C)C[C@H]1C1=CC[C@@H]3[C@@]4(C)CC[C@H](OC(C)=O)C(C)(C)[C@@H]4CC[C@@]3(C)[C@]1(C)CC2
Result: 100
